Assay: Potentiometric (pH-metric) LogP and logD profile
Type: physicochemical
Settings: octanol/water; pH 10.000
EXPERIMENTAL ENDPOINT: logD
Just the number, please, no unit after it.

Provide logD value for the following molecule: COCCOc1cccc([C@@H]2CCN(CCn3cccc3)[C@H](C)[C@H]2COc2ccc3c(c2)C(=O)NC3)c1 [crystalline Form I] 3.81

---

Experiment: Approximate solubility by solvent addition technique
Format: physicochemical
Conditions: tBME, 20 °C, organic solvent or mixture, thermodynamic from solid, heating to 40° C. between solvent aliquots
EXPERIMENTAL ENDPOINT: solubility

Provide solubility value for the following compound: COCCOc1cccc([C@@H]2CCN(CCn3cccc3)[C@H](C)[C@H]2COc2ccc3c(c2)C(=O)NC3)c1 [free base] ≤ 10000 µg/mL

---

Test: Approximate solubility by solvent addition technique
Format: physicochemical
Conditions: MEK (methyl ethyl ketone), 20 °C, organic solvent or mixture, thermodynamic from solid, MEK, heating to 40° C. between solvent aliquots
EXPERIMENTAL ENDPOINT: solubility

Provide solubility value for the following compound: COCCOc1cccc([C@@H]2CCN(CCn3cccc3)[C@H](C)[C@H]2COc2ccc3c(c2)C(=O)NC3)c1 [free base] > 200 mg/mL

---

Test: Approximate solubility by solvent addition technique
Format: physicochemical
Conditions: dichloromethane, 20 °C, organic solvent or mixture, thermodynamic from solid, heating to 40° C. between solvent aliquots
Method: The approximate solubility values of the amorphous free base in the selected solvent systems (see Table 1) was estimated by the solvent addition technique. […] The approximate solubility values of the amorphous free base in a range of different solvent systems was determined at ambient temperature, with heating to 40° C. between solvent aliquots. […] The residual tBME could not be quantified, due to overlapping signals with the API. […]
EXPERIMENTAL ENDPOINT: solubility

Provide solubility value for the following molecule: COCCOc1cccc([C@@H]2CCN(CCn3cccc3)[C@H](C)[C@H]2COc2ccc3c(c2)C(=O)NC3)c1 [free base] > 200 mg/mL

---

Test: Potentiometric (pH-metric) LogP and logD profile
Assay type: physicochemical
Conditions: 1-octanol/water; pH 5.000
EXPERIMENTAL ENDPOINT: logD

Provide logD value for the following molecule: COCCOc1cccc([C@@H]2CCN(CCn3cccc3)[C@H](C)[C@H]2COc2ccc3c(c2)C(=O)NC3)c1 [crystalline Form I] 1.2

---

Experiment: Potentiometric (pH-metric) LogP and logD profile
Assay type: physicochemical
Conditions: octanol/water, pH 6.5; pH 6.500
EXPERIMENTAL ENDPOINT: logD

Provide logD value for the following compound: COCCOc1cccc([C@@H]2CCN(CCn3cccc3)[C@H](C)[C@H]2COc2ccc3c(c2)C(=O)NC3)c1 [crystalline Form I] 2.55
